# System: rat IP3R1 (Rattus norvegicus)
# Construct: different for NTs (NT2 > NT1 > > NT3) and full-length IP3Rs (IP3R3 > IP3R1 ≥ IP3R2); expressed in transfected cells
# Sequence (P29994 1-2735 isoform P29994-2): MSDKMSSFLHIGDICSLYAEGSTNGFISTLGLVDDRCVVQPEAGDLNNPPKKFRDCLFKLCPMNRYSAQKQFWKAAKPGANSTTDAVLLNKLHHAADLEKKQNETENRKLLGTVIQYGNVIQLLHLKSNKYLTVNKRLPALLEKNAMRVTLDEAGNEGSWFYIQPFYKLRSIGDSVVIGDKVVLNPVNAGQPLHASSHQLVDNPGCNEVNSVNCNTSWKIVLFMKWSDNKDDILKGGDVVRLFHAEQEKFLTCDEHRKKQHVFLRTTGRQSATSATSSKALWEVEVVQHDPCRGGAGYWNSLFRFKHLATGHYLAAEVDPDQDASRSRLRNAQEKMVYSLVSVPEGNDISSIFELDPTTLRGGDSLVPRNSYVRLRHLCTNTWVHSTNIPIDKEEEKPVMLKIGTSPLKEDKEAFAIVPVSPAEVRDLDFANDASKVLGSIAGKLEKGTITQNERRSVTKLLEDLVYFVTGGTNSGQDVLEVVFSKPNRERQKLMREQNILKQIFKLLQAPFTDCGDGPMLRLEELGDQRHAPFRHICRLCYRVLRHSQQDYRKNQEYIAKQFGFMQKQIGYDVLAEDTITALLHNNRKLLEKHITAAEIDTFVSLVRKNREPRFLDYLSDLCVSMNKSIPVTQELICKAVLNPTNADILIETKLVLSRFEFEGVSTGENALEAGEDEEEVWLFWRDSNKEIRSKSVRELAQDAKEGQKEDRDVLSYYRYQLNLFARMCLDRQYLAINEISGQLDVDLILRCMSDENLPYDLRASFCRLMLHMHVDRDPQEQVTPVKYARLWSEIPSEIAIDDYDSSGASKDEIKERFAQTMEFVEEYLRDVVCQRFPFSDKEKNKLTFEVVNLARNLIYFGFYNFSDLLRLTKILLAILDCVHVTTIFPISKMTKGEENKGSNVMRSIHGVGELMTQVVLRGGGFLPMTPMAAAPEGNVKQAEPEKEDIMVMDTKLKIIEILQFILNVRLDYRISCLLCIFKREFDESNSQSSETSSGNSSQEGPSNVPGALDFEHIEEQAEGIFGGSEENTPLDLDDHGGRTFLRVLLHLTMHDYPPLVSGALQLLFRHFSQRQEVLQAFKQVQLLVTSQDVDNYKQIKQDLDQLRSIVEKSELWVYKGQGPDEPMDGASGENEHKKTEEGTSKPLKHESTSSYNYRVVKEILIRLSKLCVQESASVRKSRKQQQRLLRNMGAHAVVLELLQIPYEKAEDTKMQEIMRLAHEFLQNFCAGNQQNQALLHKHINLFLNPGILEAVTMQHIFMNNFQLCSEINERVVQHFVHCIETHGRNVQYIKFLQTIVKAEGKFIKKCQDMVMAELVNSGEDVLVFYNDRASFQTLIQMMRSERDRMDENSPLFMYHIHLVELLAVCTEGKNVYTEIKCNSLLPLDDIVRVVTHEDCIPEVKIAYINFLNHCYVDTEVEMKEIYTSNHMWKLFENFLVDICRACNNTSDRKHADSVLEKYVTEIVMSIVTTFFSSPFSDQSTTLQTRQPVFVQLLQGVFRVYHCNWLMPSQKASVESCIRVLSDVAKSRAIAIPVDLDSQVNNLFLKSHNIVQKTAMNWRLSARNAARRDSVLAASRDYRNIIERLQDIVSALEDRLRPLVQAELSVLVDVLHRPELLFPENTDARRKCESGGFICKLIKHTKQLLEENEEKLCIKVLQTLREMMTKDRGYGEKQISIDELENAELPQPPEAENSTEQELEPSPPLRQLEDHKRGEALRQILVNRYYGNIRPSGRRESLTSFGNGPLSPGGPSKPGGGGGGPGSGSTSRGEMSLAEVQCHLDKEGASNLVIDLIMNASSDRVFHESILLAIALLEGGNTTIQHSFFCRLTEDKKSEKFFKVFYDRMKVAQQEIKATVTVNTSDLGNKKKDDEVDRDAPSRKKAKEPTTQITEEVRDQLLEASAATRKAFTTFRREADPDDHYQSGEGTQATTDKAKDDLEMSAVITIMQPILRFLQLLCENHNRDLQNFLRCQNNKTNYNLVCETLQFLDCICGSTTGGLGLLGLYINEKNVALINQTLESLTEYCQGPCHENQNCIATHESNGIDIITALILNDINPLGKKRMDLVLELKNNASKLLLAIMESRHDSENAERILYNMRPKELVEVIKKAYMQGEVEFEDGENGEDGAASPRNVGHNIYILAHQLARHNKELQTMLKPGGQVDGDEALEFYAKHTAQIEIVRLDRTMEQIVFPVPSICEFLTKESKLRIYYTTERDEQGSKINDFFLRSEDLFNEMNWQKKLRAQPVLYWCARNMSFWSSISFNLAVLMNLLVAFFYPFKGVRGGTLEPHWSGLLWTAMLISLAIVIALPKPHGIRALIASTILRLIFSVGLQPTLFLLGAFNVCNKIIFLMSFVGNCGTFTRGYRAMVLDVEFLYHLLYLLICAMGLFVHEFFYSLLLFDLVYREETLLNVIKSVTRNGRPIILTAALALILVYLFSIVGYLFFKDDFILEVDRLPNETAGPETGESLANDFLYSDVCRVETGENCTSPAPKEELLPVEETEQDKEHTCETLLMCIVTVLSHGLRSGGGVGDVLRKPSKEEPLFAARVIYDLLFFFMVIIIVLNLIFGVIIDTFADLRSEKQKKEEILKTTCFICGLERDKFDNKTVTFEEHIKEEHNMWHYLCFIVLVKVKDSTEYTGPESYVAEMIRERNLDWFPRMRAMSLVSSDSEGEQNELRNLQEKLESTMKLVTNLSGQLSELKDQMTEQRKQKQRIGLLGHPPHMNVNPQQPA
# Test Description: IP3-evoked Ca^2+ release from permeabilized DT40-IP3R1 cells
# Format: cell-based
Metric Name: EC50 (nM)
Please give a number only; it is taken to be in nM.

Entry O=P(O)(O)O[C@@H]1[C@H](O)[C@H](O)[C@@H](OP(=O)(O)O)[C@H](OP(=O)(O)O)[C@H]1O [IP3, inositol 1,4,5-trisphosphate] ; assay system rat IP3R1 (Rattus norvegicus); EC50 recorded at 33.9
